Test: Venetoclax plasma PK in combination with enzalutamide (LC–MS/MS, non-compartmental)
Type: in vivo, human
Conditions: male, human, plasma, oral, 800 mg, venetoclax 800 mg (N = 4) with enzalutamide 160 mg/d; plasma; geometric mean (geometric SD); read-out: D1 t½ (converted)

- TEST_SMILES: "CC1(C)CCC(CN2CCN(c3ccc(C(=O)NS(=O)(=O)c4ccc(NCC5CCOCC5)c([N+](=O)[O-])c4)c(Oc4cnc5[nH]ccc5c4)c3)CC2)=C(c2ccc(Cl)cc2)C1"
  half-life [h]: 9.4

###

Assay: Venetoclax plasma PK in combination with enzalutamide (LC–MS/MS, non-compartmental)
Assay type: in vivo, human
Details: male, human, plasma, oral, Total (N = 10), venetoclax 400–800 mg with enzalutamide 160 mg/d; geometric mean (geometric SD); read-out: D1 t½ (converted)

- MOLECULE: "CC1(C)CCC(CN2CCN(c3ccc(C(=O)NS(=O)(=O)c4ccc(NCC5CCOCC5)c([N+](=O)[O-])c4)c(Oc4cnc5[nH]ccc5c4)c3)CC2)=C(c2ccc(Cl)cc2)C1 [venetoclax]"
  half-life: "~540 min"

###

Assay: Venetoclax plasma PK in combination with enzalutamide (LC–MS/MS, non-compartmental)
Format: in vivo, human
Details: human, plasma, oral, 800 mg, venetoclax 800 mg with enzalutamide 160 mg/d; plasma; N = 1 on D29; read-out: D29 AUC0-24

- TEST_SMILES: "CC1(C)CCC(CN2CCN(c3ccc(C(=O)NS(=O)(=O)c4ccc(NCC5CCOCC5)c([N+](=O)[O-])c4)c(Oc4cnc5[nH]ccc5c4)c3)CC2)=C(c2ccc(Cl)cc2)C1"
  AUC(0-t) (ng·h/mL): 8870

###

Experiment: Venetoclax plasma PK in combination with enzalutamide (LC–MS/MS, non-compartmental)
Assay type: in vivo, human
Conditions: male, human, plasma, oral, 600 mg, venetoclax 600 mg (N = 3) with enzalutamide 160 mg/d; plasma; geometric mean (geometric SD); read-out: D1 Cmax
VALUE_KIND: Cmax

- TEST_SMILES: "CC1(C)CCC(CN2CCN(c3ccc(C(=O)NS(=O)(=O)c4ccc(NCC5CCOCC5)c([N+](=O)[O-])c4)c(Oc4cnc5[nH]ccc5c4)c3)CC2)=C(c2ccc(Cl)cc2)C1"
  RESULT_VALUE: "1170 ng/mL"

###

Experiment: Venetoclax plasma PK in combination with enzalutamide (LC–MS/MS, non-compartmental)
Assay type: in vivo, human
Conditions: male, human, plasma, oral, 400 mg; read-out: D1 Tmax

- TEST_SMILES: "CC1(C)CCC(CN2CCN(c3ccc(C(=O)NS(=O)(=O)c4ccc(NCC5CCOCC5)c([N+](=O)[O-])c4)c(Oc4cnc5[nH]ccc5c4)c3)CC2)=C(c2ccc(Cl)cc2)C1"
  Tmax: "5.2 h"

###

Experiment: Venetoclax plasma PK in combination with enzalutamide (LC–MS/MS, non-compartmental)
Format: in vivo, human
Details: male, human, plasma, oral, 800 mg, venetoclax 800 mg (N = 4) with enzalutamide 160 mg/d; plasma; geometric mean (geometric SD); read-out: D1 AUC0-last

- TEST_SMILES: "CC1(C)CCC(CN2CCN(c3ccc(C(=O)NS(=O)(=O)c4ccc(NCC5CCOCC5)c([N+](=O)[O-])c4)c(Oc4cnc5[nH]ccc5c4)c3)CC2)=C(c2ccc(Cl)cc2)C1"
  AUC(0-t) / ng·h/mL: 8760

###

Experiment: Venetoclax plasma PK in combination with enzalutamide (LC–MS/MS, non-compartmental)
Format: in vivo, human
Settings: male, human, plasma, oral, 400 mg, venetoclax 400 mg (N = 3) with enzalutamide 160 mg/d; plasma; geometric mean (geometric SD); read-out: D1 AUC0-last
VALUE_KIND: AUC(0-t) (ng·h/mL)

- TEST_SMILES: "CC1(C)CCC(CN2CCN(c3ccc(C(=O)NS(=O)(=O)c4ccc(NCC5CCOCC5)c([N+](=O)[O-])c4)c(Oc4cnc5[nH]ccc5c4)c3)CC2)=C(c2ccc(Cl)cc2)C1"
  MEASUREMENT_UNITS: "ng·h/mL"
  RESULT_VALUE: 8020

###

Experiment: Venetoclax plasma PK in combination with enzalutamide (LC–MS/MS, non-compartmental)
Type: in vivo, human
Details: male, human, plasma, oral, 600 mg; read-out: D1 AUC0-inf
VALUE_KIND: AUC(0-inf)

- COMPOUND: "CC1(C)CCC(CN2CCN(c3ccc(C(=O)NS(=O)(=O)c4ccc(NCC5CCOCC5)c([N+](=O)[O-])c4)c(Oc4cnc5[nH]ccc5c4)c3)CC2)=C(c2ccc(Cl)cc2)C1 [venetoclax]"
  RESULT_VALUE: "14600 ng·h/mL"

###

Experiment: Venetoclax plasma PK in combination with enzalutamide (LC–MS/MS, non-compartmental)
Type: in vivo, human
Conditions: male, human, plasma, oral, 400 mg; read-out: D1 AUC0-inf

- COMPOUND: "CC1(C)CCC(CN2CCN(c3ccc(C(=O)NS(=O)(=O)c4ccc(NCC5CCOCC5)c([N+](=O)[O-])c4)c(Oc4cnc5[nH]ccc5c4)c3)CC2)=C(c2ccc(Cl)cc2)C1 [venetoclax]"
  MEASUREMENT_UNITS: "ng·h/mL"
  AUC(0-inf): 11100

###

Assay: Venetoclax plasma PK in combination with enzalutamide (LC–MS/MS, non-compartmental)
Format: in vivo, human
Conditions: male, human, plasma, oral, Total, venetoclax 400–800 mg with enzalutamide 160 mg/d; N = 3, 3, and 1 on D29; geometric mean (geometric SD); read-out: D29 Cmax

- MOLECULE: "CC1(C)CCC(CN2CCN(c3ccc(C(=O)NS(=O)(=O)c4ccc(NCC5CCOCC5)c([N+](=O)[O-])c4)c(Oc4cnc5[nH]ccc5c4)c3)CC2)=C(c2ccc(Cl)cc2)C1 [venetoclax]"
  Cmax: "765 ng/mL"
